Data provenance: paper PMC12136788

- EXPERIMENTAL_TARGET: T1, UNK ZnF1-3 (human, UniProt Q9C0B0 31-174)
- T1 sequence: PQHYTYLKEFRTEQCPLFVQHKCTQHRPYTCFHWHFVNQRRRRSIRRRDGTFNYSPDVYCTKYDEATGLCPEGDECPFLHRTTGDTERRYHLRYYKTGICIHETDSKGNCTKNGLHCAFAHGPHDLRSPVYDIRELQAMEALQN
- PROTOCOL_TEXT: nsRBNS (natural sequence RNA bind-n-seq); RBNS binding buffer (assumed for nsRBNS): 25 mM Tris pH 7.5, 150 mM KCl, 3 mM MgCl2, 0.01% Triton X-100, 500 ug/ml BSA, 20 U/ml SUPERase-In, 4 C; UNK is unkempt and MSI1 is Musashi-1; names of the RNAs are library labels; protein concentration not given here; high values mean tight binding
Whole data set: some 24,000 sequences, median “enrichment r” near 0.99, cut for the highest 2% near 3.7. The sample holds the highest values, similar sequences and a random draw of the others, so the mix is not that of the screen.
# if measured binding signal < 1 enrichment R: fulfilled  # else: not fulfilled

BINDER	CLASS_LABEL
chrX:20248820:20248821:+_ENSMUSG00000001924_ENSMUST00000001989|mus_mus|mus_mus_mus_hu_True|78_78 (ssRNA) RNA: GGGAGUUCUACAGUCCGACGAUCGGCGAAGUCCGUCACCACAAAGUCAGGUUCUGCCAGUGAUGCUACCAAGGAUUUAAAGCUAAUCUUCUUAGGUACUUUGACCUGACUGACGAUGCCUCCACGGAUGUAGUCGGAGAAGUUCAACAGAGGAUUGAGCAUCA	fulfilled

Problem: Item 35805507_35818940_561_CDS_ENSG00000108100_ENST00000265375|human|control|control (ssRNA) RNA: GGGAGUUCUACAGUCCGACGAUCUUCAUCAAAAAUAUCUAAGAGCAUCCUUCCAUCUGGGUCCCUGUUUUUGAUGUGAUAAUAUAUUGCAAGAGCGACACAUUUAAUUGUAUACUUGAGGUUUGGUUGACUGACUGUGCUAUCCAACAGAGGAUUGAGCAUCA : binding signal beneath 1 enrichment R, strictly?
Solution: not fulfilled

Problem: Item chr2:168009416:168009417:-_ENSMUSG00000051149_ENSMUST00000088001|perfect_dup|FALSE|FALSE (ssRNA) RNA: GGGAGUUCUACAGUCCGACGAUCCAUAUGGUUGAGCAGAGUAUCUGUGGGUAAAUAGCGAUUACAGUAGAGGCAUUUGCUAGUAAAAUUGUGUAUUUUCAUAAUGUAGUUGGCUACUGCUGGGACUUUCUCAGCUUUAUGUUCCAACAGAGGAUUGAGCAUCA : binding signal beneath 1 enrichment R, strictly?
Solution: not fulfilled

Problem: Item chr21:34877999:34878000:-_ENSG00000159131_ENST00000381815|hu_hu|motif|central (ssRNA) RNA: GGGAGUUCUACAGUCCGACGAUCGUCAAUUGCACUGUCAAAUUCUACACGAUUUUUAUACAGUUUAUGAUUAAUUACUCGGGUGGGAAUACCAGCUCUUUCCGCUUUAUCUAACCCAGCUACUGCGGCUUUGUUGGAGAUAACCAACAGAGGAUUGAGCAUCA : binding signal beneath 1 enrichment R, strictly?
Solution: fulfilled

Problem: Item chr16:94664806:94664807:+_ENSMUSG00000040785_ENSMUST00000117648|mus_mus|FALSE|FALSE (ssRNA) RNA: GGGAGUUCUACAGUCCGACGAUCAUUAGGACUCUCAAAGUAUGCAGCGGCAUUUUCAUCUGCUCUGUUGCUGGCUACAAAAGAUGGCACCACUGGCAUGGAUCUUUGCAUUGGAUACUCAGAAGAAAUGUUGGCCAAAGGUGUCAACAGAGGAUUGAGCAUCA : binding signal beneath 1 enrichment R, strictly?
Solution: not fulfilled

Problem: Item chr3:35977374:35977375:+_ENSMUSG00000027710_ENSMUST00000011492|mus_hu|motif|central (ssRNA) RNA: GGGAGUUCUACAGUCCGACGAUCCACAGGUAUCUUGGUGUUUUCAAAAUGGACUUCACAAGUGUUGGAGCCCCGAAUGCCGGAUUUAUCUUCGGGUUUCCCAUUAGUGACUCCACCAAAGUCUCUUUCUACUAUGAAUGCUGUCAACAGAGGAUUGAGCAUCA : binding signal beneath 1 enrichment R, strictly?
Solution: fulfilled
